assay: Phase 1/2 clinical study, plasma pharmacokinetic evaluation; format: in vivo, human; settings: human, plasma, oral, 100 mg, 100 mg BID Arm A, C1D1, N=2, mean
measureName: Tmax (h)
Give the value in h but do not write h after it.

IN: Record request: Tmax value, item C=C1C[C@@H]2CC[C@H]1[C@@H](C(=O)N1CCC3(CC1)CN(c1ncncc1Oc1ccc(F)cc1C(=O)N(C(C)C)C(C)C)C3)N2
OUT: 3

###

Test: Phase 1/2 clinical study, plasma pharmacokinetic evaluation
Type: in vivo, human
Conditions: human, plasma, oral, 120 mg, 120 mg BID Arm A, C2D1, N=6, mean
Protocol: In the present test of the present compound, PK samples have been collected in up to 24 patients dosed in dose groups of 40, 80, 100, and 120 mg BID Arm A, and in dose groups of 40 and 60 mg BID Arm B (Table 6). Large preliminary PK inter-patient variability was observed. (1) In the present study, PK samples have been collected in up to 42 patients dosed in dose groups of 40, 80, 100, 120, 140 and 200 mg BID Arm A, and in dose groups of 40, 60, 100, and 200 mg BID Arm B (Table 15). […]
measureName: AUC(0-t)

IN: Requested read-out: AUC(0-t). Entry: C=C1C[C@@H]2CC[C@H]1[C@@H](C(=O)N1CCC3(CC1)CN(c1ncncc1Oc1ccc(F)cc1C(=O)N(C(C)C)C(C)C)C3)N2
OUT: 7860 ng·h/mL

###

test: Phase 1/2 clinical study, plasma pharmacokinetic evaluation; assay type: in vivo, human; details: human, plasma, oral, 60 mg, 60 mg BID Arm B, C2D1, N=4, mean
measureName: AUC(0-t) (ng·h/mL)
Kindly answer with a numeric value in ng·h/mL, unit omitted.

IN: Data request, read-out AUC(0-t), for C=C1C[C@@H]2CC[C@H]1[C@@H](C(=O)N1CCC3(CC1)CN(c1ncncc1Oc1ccc(F)cc1C(=O)N(C(C)C)C(C)C)C3)N2
OUT: 2610

###

test: Phase 1/2 clinical study, plasma pharmacokinetic evaluation; type: in vivo, human; settings: human, plasma, oral, 40 mg, Cycle 1 Day 1; 40 mg BID Arm A (without azole); N=2; mean
measureName: Cmax (ng/mL)
Provide only the numeric value, understood in ng/mL.

IN: Cmax for C=C1C[C@@H]2CC[C@H]1[C@@H](C(=O)N1CCC3(CC1)CN(c1ncncc1Oc1ccc(F)cc1C(=O)N(C(C)C)C(C)C)C3)N2 ?
OUT: 1160

###

test: Phase 1/2 clinical study, plasma pharmacokinetic evaluation; format: in vivo, human; details: human, plasma, oral, Arm B (with azole), FIGS. 4A to 4D cut-off; read-out: Mean t1/2
measureName: half-life

IN: // half-life lookup, key: C=C1C[C@@H]2CC[C@H]1[C@@H](C(=O)N1CCC3(CC1)CN(c1ncncc1Oc1ccc(F)cc1C(=O)N(C(C)C)C(C)C)C3)N2
OUT: 3 to 7 h

###

experiment: Phase 1/2 clinical study, plasma pharmacokinetic evaluation; format: in vivo, human; conditions: human, plasma, oral, 200 mg, Cycle 2 Day 1; 200 mg BID Arm B (with azole); N=5 (three patients excluded); mean
measureName: AUC(0-t) (ng·h/mL)
Numbers only here, please. The scale is ng·h/mL.

IN: Need AUC(0-t) of C=C1C[C@@H]2CC[C@H]1[C@@H](C(=O)N1CCC3(CC1)CN(c1ncncc1Oc1ccc(F)cc1C(=O)N(C(C)C)C(C)C)C3)N2 , thanks.
OUT: 16800

Origin of values: patent US20260248787A9
